This collection of values is drawn from PubChem BioAssay AID248.

test system: L1210 leukemia ip in BDF1 mice, survival T/C; experiment: NCI In Vivo Anticancer Drug Screen. Data for tumor model L1210 Leukemia (intraperitoneal) in B6D2F1 (BDF1) mice; conditions: endpoint: mean survival time; dose: 200.0 mg/kg/injection; schedule: Q04DX002 (ip); vehicle: saline; higher = longer survival
Toxic doses and inconclusive results are not listed.
experimental-endpoint: T/C

Data request: Entry under review: CCCCCP(=O)(O)O . Reported T/C?
Data returned: 99 % of control

Data request: Entry under review: CC(C)(C)OC(=O)NC(CC(N)=O)C(=O)ON1C(=O)CCC1=O (stereo not given) . Reported T/C?
Data returned: 86 % of control

Data request: Entry under review: CCCC/C(CC)=N\N=C(/CC)CCCC . Reported T/C?
Data returned: 88 % of control

Data request: Entry under review: NC(=O)N1CCCCN1C(N)=O . Reported T/C?
Data returned: 111 % of control

Data request: Entry under review: Cc1ncc([N+](=O)[O-])n1CCN1CCOCC1 . Reported T/C?
Data returned: 96 % of control

Data request: Entry under review: CCCCCCCCc1ccc(OC(C)OCCOCCOCC)cc1 (stereo not given) . Reported T/C?
Data returned: 88 % of control

Data request: Entry under review: O=C(O)CCC(=O)Nc1cc(C(F)(F)F)ccc1Cl . Reported T/C?
Data returned: 97 % of control

Data request: Entry under review: Cc1ccc(Nc2cccc3c2C(=O)c2c(Nc4ccc(C)cc4C)cccc2C3=O)c(C)c1 . Reported T/C?
Data returned: 117 % of control

Data request: Entry under review: O=c1[nH]cc(F)c(=O)[nH]1 . Reported T/C?
Data returned: 110 % of control

Data request: Entry under review: CN(C)c1n[nH]c(N)n1 . Reported T/C?
Data returned: 103 % of control

###

tested on: L1210 leukemia ip in BDF1 mice, survival T/C; assay: NCI In Vivo Anticancer Drug Screen. Data for tumor model L1210 Leukemia (intraperitoneal) in B6D2F1 (BDF1) mice; settings: endpoint: mean survival time; dose: 200.0 mg/kg/injection; schedule: Q01DX009 (ip); vehicle: gum acacia; higher = longer survival
Inconclusive results and toxic doses are left out.
experimental-endpoint: T/C

Data request: Entry under review: Cc1cc(C(C)(C)C)ccc1SC(=O)Nc1cc([N+](=O)[O-])ccc1Cl . Reported T/C?
Data returned: 102 % of control

Data request: Entry under review: O=C(Nc1ccc(Cl)cc1C(F)(F)F)Sc1ccc(Cl)cc1 . Reported T/C?
Data returned: 90 % of control

Data request: Entry under review: CC(CCC(=O)O)(c1cc(Cl)c(O)c(Cl)c1)c1cc(Cl)c(O)c(Cl)c1 . Reported T/C?
Data returned: 103 % of control

Data request: Entry under review: O=C(Nc1cccc(F)c1)SCc1ccccc1 . Reported T/C?
Data returned: 90 % of control

Data request: Entry under review: OC12c3ccccc3C1(c1ccccn1)c1ccccc12 (stereo not given) . Reported T/C?
Data returned: 96 % of control

###

Assign T/C to each entry below.
system: L1210 leukemia ip in BDF1 mice, survival T/C; assay: NCI In Vivo Anticancer Drug Screen. Data for tumor model L1210 Leukemia (intraperitoneal) in B6D2F1 (BDF1) mice; settings: endpoint: mean survival time; dose: 400.0 mg/kg/injection; schedule: Q04DX003 (ip); vehicle: Klucel (hydroxypropylcellulose) (HPC); higher = longer survival
Inconclusive results and toxic doses are left out.

Data request: Entry under review: O=[N+]([O-])c1cc(Cl)ccc1S(=O)(=O)O . Reported T/C?
Data returned: 98 % of control

Data request: Entry under review: c1ccc(-c2cccc(-c3ccccc3)c2)cc1 . Reported T/C?
Data returned: 90 % of control

Data request: Entry under review: Cc1cccc(-c2nnc(C(Cl)(Cl)Cl)o2)c1 . Reported T/C?
Data returned: 97 % of control

Data request: Entry under review: COc1ccc(/C=C(\C#N)c2ccc(OC)cc2)cc1 . Reported T/C?
Data returned: 93 % of control

Data request: Entry under review: CCCCCCCCCCCCCCCCCC(N)=O . Reported T/C?
Data returned: 96 % of control

Data request: Entry under review: OCCCNc1nc2cc(Cl)ccc2c2ccc(Cl)cc12 . Reported T/C?
Data returned: 103 % of control

Data request: Entry under review: CN(C)c1ccc(/C=C2\C=Cc3ccccc32)c(F)c1 . Reported T/C?
Data returned: 96 % of control
